- Test system: Mus musculus
- test summary: Anticonvulsant activity was measured by maximal electroshock seizure test in mice by ip administration
- Assay type: functional
Recorded measurements of ED50, one per entry
# number only, unit mg/kg dropped from output

{"columns": ["molecule", "quantity kind", "unit abbreviation", "assay result"],
 "data": [
  ["COC(=O)c1[nH]cc(-c2ccc(Cl)cc2)c1N1CCOCC1", "ED50", "mg/kg", 58.1],
  ["COC(=O)c1c(N2CCOCC2)c(-c2ccc(Cl)cc2)cn1C(C)=O", "ED50", "mg/kg", 33.1],
  ["CCOC(=O)c1[nH]cc(-c2ccc(Cl)cc2)c1N1CCOCC1", "ED50", "mg/kg", 49.9],
  ["NC(=O)N1c2ccccc2C=Cc2ccccc21 [CARBAMAZEPINE]", "ED50", "mg/kg", 9.9],
  ["Clc1ccc(-c2c[nH]nc2N2CCOCC2)cc1", "ED50", "mg/kg", 47],
  ["COC(=O)c1[nH]cc(-c2ccc(Br)cc2)c1N1CCOCC1", "ED50", "mg/kg", 27.8]
]}

Lab book: ED50 of NC(=O)c1[nH]cc(-c2ccc(Cl)cc2)c1N1CCOCC1 noted as 65

The molecule identified as COC(=O)c1[nH]cc(-c2ccc(Cl)cc2)c1N1CCN(c2ccccc2)CC1 registered its ED50 at 175

For record Clc1ccc(-c2c[nH]cc2N2CCOCC2)cc1 the listed ED50 is 62.1

# molecule COC(=O)c1c(N2CCOCC2)c(-c2ccc(Cl)cc2)cn1C(=O)c1ccccc1 ; its ED50 = 43.7

For reference, reported ED50 for CC(=O)c1[nH]cc(-c2ccc(Cl)cc2)c1N1CCOCC1 stands at 72.6

For reference, reported ED50 for O=C1NC(=O)C(c2ccccc2)(c2ccccc2)N1 stands at 6.5

###

- test summary: Partition coefficient (logP)
- Assay type: physicochemical
- run parameters: octanol/water
quantity kind: logP
// no unit string in output, number only

{"columns": ["smi", "quantity kind", "assay result"],
 "data": [
  ["CN1CCN(C(=O)c2[nH]cc(-c3ccc(Cl)cc3)c2N2CCOCC2)CC1", "logP", 3.3],
  ["COC(=O)c1c(N2CCOCC2)c(-c2ccc(Cl)cc2)cn1C(=O)c1ccccc1", "logP", 5.5],
  ["COCCNC(=O)c1[nH]cc(-c2ccc(Cl)cc2)c1N1CCOCC1", "logP", 3.3],
  ["COC(=O)c1[nH]cc(-c2ccc(Cl)cc2)c1N1CCN(c2ccccc2)CC1", "logP", 4.4],
  ["CN(C)C(=O)c1[nH]cc(-c2ccc(Cl)cc2)c1N1CCOCC1", "logP", 3.1],
  ["COC(=O)c1c(N2CCOCC2)c(-c2ccc(Cl)cc2)cn1C(C)=O", "logP", 3.5]
]}

// recorded logP for COC(=O)c1c(N2CCOCC2)c(-c2ccc(Cl)cc2)cn1C(=O)N1CCOCC1 : 3.1

# logP of NC(=O)c1[nH]cc(-c2ccc(Cl)cc2)c1N1CCOCC1 = 2.4

Reported logP of COC(=O)c1[nH]cc(-c2ccc(Cl)cc2)c1N(C)CCN(C)C : 3.3

# compound CCOC(=O)c1[nH]cc(-c2ccc(Cl)cc2)c1N1CCOCC1 ; its logP = 3.9

get_value(item= Clc1ccc(-c2c[nH]cc2N2CCOCC2)cc1 , readout=logP) returns 3.2
